For each of the compounds below, state its viability.
methodSummary: BET inhibitor-based combinations targeting novel dependencies in MECOM-rearranged (r) AML: SET-2 cell line (AID 2202231);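 also: plate controls were DMSO treated cells for no effect and wells without cells for full effect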
cond: SET-2 AML cells viability, CellTiter-Glo luminescence, 48 h; stronger effect = lower value, series mostly up to about 46 µM
Records with an inconclusive call do not appear.
Please respond with the number in % and leave the unit unwritten.

get_value(item= CN(Cc1cc(Br)cc(Br)c1N)C1CCCCC1 , readout=viability) returns 102

get_value(item= OC(Cn1cncn1)(Cn1cncn1)c1ccc(F)cc1F , readout=viability) returns 116

get_value(item= CC(C)C(C)C=CC(C)C1CCC2C3=CC=C4CC(O)CCC4(C)C3CCC21C (stereo not given) , readout=viability) returns 121

get_value(item= O=[N+]([O-])c1cncn1CCN1CCOCC1 , readout=viability) returns 112

get_value(item= O=c1[nH]c(=O)n(C2CCCO2)cc1F (stereo not given) , readout=viability) returns 111

get_value(item= C[C@]1(c2nc3c(C(N)=O)cccc3[nH]2)CCCN1 , readout=viability) returns 113

get_value(item= CN1C2CCC1CC(OC(=O)C(CO)c1ccccc1)C2 (stereo not given) , readout=viability) returns 89.7

get_value(item= Clc1ccccc1CN1CCc2sccc2C1 , readout=viability) returns 111

get_value(item= O=C(NC1CCOCC1)c1ccc(-c2cc(-c3cn[nH]c3-c3ccccn3)ccn2)cc1 , readout=viability) returns 101

get_value(item= CCCOc1ccn2c(C(C)=O)cc(-c3ccccc3S(C)(=O)=O)c2c1 , readout=viability) returns 93

get_value(item= C[C@H]1CN(C[C@H](Cc2ccccc2)C(=O)NCC(=O)O)CC[C@@]1(C)c1cccc(O)c1 , readout=viability) returns 120

get_value(item= O=C([C@@H](Cc1cccc(C(F)(F)F)c1)NS(=O)(=O)c1cc(F)c2c(c1)CCNC2)N1CCCC1 , readout=viability) returns 107

get_value(item= NCCCC(N)(C(=O)O)C(F)F (stereo not given) , readout=viability) returns 102

get_value(item= Cn1c(=O)c(-c2c(Cl)cccc2Cl)cc2cnc(Nc3cccc(C(=O)O)c3)nc21 , readout=viability) returns 116

get_value(item= Cn1c(=O)c2[nH]cnc2n(C)c1=O , readout=viability) returns 117

get_value(item= CCOC(=O)C1=C(N)Oc2ccc(Br)cc2C1C(C#N)C(=O)OCC (stereo not given) , readout=viability) returns 112

get_value(item= CN1CCN2c3ncccc3Cc3ccccc3C2C1 (stereo not given) , readout=viability) returns 102

get_value(item= CNNCc1ccc(C(=O)NC(C)C)cc1 , readout=viability) returns 112

get_value(item= NC(=O)c1cccc(N)c1 , readout=viability) returns 120

get_value(item= CN(C)CCOC(c1ccccc1)c1ccccc1 , readout=viability) returns 105

get_value(item= CNC[C@H](O)c1cccc(O)c1 , readout=viability) returns 112

get_value(item= N#Cc1c(O)c2c(-c3ccc(-c4ccccc4O)cc3)csc2[nH]c1=O , readout=viability) returns 120

get_value(item= CC(=O)O[C@H]1C[C@@H]2CC[C@@H]3[C@H](CC[C@@]4(C)[C@H]3C[C@H]([N+]3(C)CCCCC3)[C@@H]4OC(C)=O)[C@@]2(C)C[C@@H]1N1CCCCC1 , readout=viability) returns 116

get_value(item= CC(C(=O)O)c1ccc(-c2ccccc2)c(F)c1 (stereo not given) , readout=viability) returns 111

get_value(item= CCCc1nn(C)c2c(=O)[nH]c(-c3cc(S(=O)(=O)N4CCN(C)CC4)ccc3OCC)nc12 , readout=viability) returns 114

get_value(item= Nc1ncnc2c1ncn2[C@@H]1O[C@H](CO)[C@@H](O)[C@H]1O , readout=viability) returns 126

get_value(item= Nc1ccc(S(N)(=O)=O)cc1 , readout=viability) returns 93.8

get_value(item= Cc1cccc(Oc2cnc(=O)[nH]c2)c1 , readout=viability) returns 115

get_value(item= C[C@H](c1ccc(F)cc1CCCC(=O)O)N(c1cc(F)ccc1F)S(=O)(=O)c1ccc(Cl)cc1 , readout=viability) returns 113

get_value(item= CC(C)[C@H](CO)Nc1nc(Nc2ccc(C(=O)O)c(Cl)c2)c2ncn(C(C)C)c2n1 , readout=viability) returns 109

get_value(item= CCCCOc1ccc(C(=O)Nc2ccc(F)cc2F)cc1 , readout=viability) returns 103

get_value(item= OCCC#Cc1nc(-c2ccc(F)cc2)c(-c2ccncc2)n1CCCc1ccccc1 , readout=viability) returns 100

get_value(item= COC1CCC(N(C(=O)C2CCC(C)CC2)c2cc(C3=CCCCC3)sc2C(=O)O)CC1 (stereo not given) , readout=viability) returns 113

get_value(item= Cc1c(F)cc(C(=O)NC2CC2)cc1-c1c(F)cn2c(C(C)(C)C)nnc2c1F , readout=viability) returns 104

get_value(item= CN(CCOc1ccc(NS(C)(=O)=O)cc1)CCc1ccc(NS(C)(=O)=O)cc1 , readout=viability) returns 110

get_value(item= O=C(NCC(=O)N1CCCC1)Nc1ccc2cnccc2c1 , readout=viability) returns 109

get_value(item= Cc1[nH]nc(C(F)(F)F)c1Cc1sc2c(c1C(=O)N1C[C@](C)(O)CO1)c(=O)n(C)c(=O)n2C(C)C , readout=viability) returns 110

get_value(item= CC(C)NCC(O)c1ccc(NS(C)(=O)=O)cc1 (stereo not given) , readout=viability) returns 116

get_value(item= CCCn1c(=O)c2[nH]c(-c3cnn(Cc4cccc(C(F)(F)F)c4)c3)nc2n(CC)c1=O , readout=viability) returns 114

get_value(item= CNc1nc(C)nc(N[C@H]2CCC[C@@H](C(=O)NCc3ccc(C#N)cc3C(F)(F)F)C2)n1 , readout=viability) returns 108
